Measured values drawn from patent US20240190855A1 for this set.

biological target: CDK2/Cyclin E complex (Homo sapiens); assay: CDK2/Cyclin E fluorescence-based microfluidic mobility shift assay (CDK2 Biochemical Caliper Assay); details: read-out: Biochemical CDK2/CyclinE Caliper IC50
measuredAttribute: IC50

compound="Cc1cn2nccc2c(Nc2cc(C3CCCC3)[nH]n2)n1 [Example 822]" systemname="CDK2/Cyclin E complex (Homo sapiens)" observed="250 to 1000 nM"
compound="CC(C)n1cnnc1O[C@H]1CO[C@@H](c2cc(Nc3nccc4nccn34)n[nH]2)C1 [Example 749]" systemname="CDK2/Cyclin E complex (Homo sapiens)" observed="100 to 250 nM"
compound="c1cncc(O[C@H]2CC[C@@H](c3cc(Nc4nccn5nccc45)n[nH]3)C2)c1 (single isomer, unassigned) [Example 505]" systemname="CDK2/Cyclin E complex (Homo sapiens)" observed="≤ 100 nM"
compound="Cn1nc(COC(F)(F)F)cc1C(=O)Nc1cc([C@H]2C[C@@H](OC(=O)NC3(C#N)CC3)CO2)[nH]n1 [Example 788]" systemname="CDK2/Cyclin E complex (Homo sapiens)" observed="≤ 100 nM"
compound="COCc1cc(C(=O)Nc2cc([C@H]3C[C@](C)(CC(=O)NC(C)C)C3)[nH]n2)n(C)n1 [Example 533]" systemname="CDK2/Cyclin E complex (Homo sapiens)" observed="1000 to 100000 nM"
compound="CN1CCc2c(ccnc2Nc2cc([C@H]3C[C@@H](OC(=O)NC4(C)CC4)CO3)[nH]n2)C1 [Example 758]" systemname="CDK2/Cyclin E complex (Homo sapiens)" observed="1000 to 100000 nM"
compound="Cn1cc2c(Nc3cc([C@H]4C[C@@H](OC(=O)NC5(C)CC5)CO4)[nH]n3)nccc2n1 [Example 745]" systemname="CDK2/Cyclin E complex (Homo sapiens)" observed="100 to 250 nM"
compound="COCc1cc(C(=O)Nc2cc([C@@H]3CC[C@H](Oc4cncc(C)c4)C3)[nH]n2)n(C)n1 (single isomer, unassigned) [Example 384]" systemname="CDK2/Cyclin E complex (Homo sapiens)" observed="1000 to 100000 nM"
compound="Cn1nc(OCC(F)F)cc1C(=O)Nc1cc([C@@H]2C[C@H](OC(=O)NC34CC(C3)C4)CO2)[nH]n1 [Example 907]" systemname="CDK2/Cyclin E complex (Homo sapiens)" observed="≤ 100 nM"
compound="COCc1cc(C(=O)Nc2cc([C@H]3CC[C@@H](Oc4nnccc4C(C)C)C3)[nH]n2)n(C)n1 (single isomer, unassigned) [Example 410]" systemname="CDK2/Cyclin E complex (Homo sapiens)" observed="≤ 100 nM"
compound="COCc1nc2cc(Nc3cc([C@@H]4CC[C@H](OC(=O)NC(C)C)C4)[nH]n3)ncc2s1 (single isomer, unassigned) [Example 112]" systemname="CDK2/Cyclin E complex (Homo sapiens)" observed="100 to 250 nM"
compound="COCc1cc(C(=O)Nc2cc(-c3csc4cncnc34)[nH]n2)n(C)n1 [Example 242]" systemname="CDK2/Cyclin E complex (Homo sapiens)" observed="1000 to 100000 nM"
compound="COCc1cc2c(Nc3cc([C@H]4CC[C@@H](OC(=O)NC(C)C)C4)[nH]n3)nccn2n1 (single isomer, unassigned) [Example 480]" systemname="CDK2/Cyclin E complex (Homo sapiens)" observed="≤ 100 nM"
compound="O=c1cc(Nc2cc(C3CCCC3)[nH]n2)c2ncccc2[nH]1 [Example 873]" systemname="CDK2/Cyclin E complex (Homo sapiens)" observed="1000 to 100000 nM"

====

biological target: CDK2/Cyclin E complex (Homo sapiens, UniProt P24941); assay: CDK2/Cyclin E fluorescence-based microfluidic mobility shift assay (CDK2 Biochemical Caliper Assay); details: read-out: Biochemical CDK2/CyclinE Caliper IC50
measuredAttribute: IC50

molecule=COCc1cc(C(=O)Nc2cc([C@H]3C[C@H](COC(=O)NC(C)C)C3)[nH]n2)n(C)n1 systemname="CDK2/Cyclin E complex (Homo sapiens, UniProt P24941)" observed="1000 to 100000 nM"
molecule=c1cn2ncc(Nc3cc(C4CCCC4)[nH]n3)cc2n1 systemname="CDK2/Cyclin E complex (Homo sapiens, UniProt P24941)" observed="1000 to 100000 nM"
molecule=Cn1ncc2cnc(Nc3cc([C@H]4C[C@@H](OC(=O)NC5(C)CC5)CO4)[nH]n3)cc21 systemname="CDK2/Cyclin E complex (Homo sapiens, UniProt P24941)" observed="≤ 100 nM"
molecule=CC1(NC(=O)O[C@H]2CO[C@@H](c3cc(Nc4ccn5nccc5n4)n[nH]3)C2)CC1 systemname="CDK2/Cyclin E complex (Homo sapiens, UniProt P24941)" observed="≤ 100 nM"
molecule=Cn1nc(COC(F)(F)F)cc1C(=O)Nc1cc([C@H]2C[C@@H](OC(=O)NC(C)(C)C#N)CO2)[nH]n1 systemname="CDK2/Cyclin E complex (Homo sapiens, UniProt P24941)" observed="≤ 100 nM"
molecule="c1c(Nc2ncc3c(n2)C2CCC3C2)n[nH]c1C1CCCC1 (stereo not drawn)" systemname="CDK2/Cyclin E complex (Homo sapiens, UniProt P24941)" observed="1000 to 100000 nM"
molecule="CC(C)NC(=O)O[C@@H]1CC[C@H](c2cc(NC(=O)CN(C)c3ncnc4nc[nH]c34)n[nH]2)C1 (single isomer, unassigned)" systemname="CDK2/Cyclin E complex (Homo sapiens, UniProt P24941)" observed="100 to 250 nM"
molecule=COCc1cc(C(=O)Nc2cc([C@H]3C[C@@H](Oc4[nH]ncc4C(C)C)CO3)[nH]n2)n(C)n1 systemname="CDK2/Cyclin E complex (Homo sapiens, UniProt P24941)" observed="≤ 100 nM"
molecule="COCc1cc(C(=O)Nc2cc([C@H]3CC[C@@H](Oc4nccnc4C(F)F)C3)[nH]n2)n(C)n1 (single isomer, unassigned)" systemname="CDK2/Cyclin E complex (Homo sapiens, UniProt P24941)" observed="1000 to 100000 nM"
molecule="COCc1cc(C(=O)Nc2cc([C@@H]3CC[C@H](Oc4nnccc4C4CC4)C3)[nH]n2)n(C)n1 (single isomer, unassigned)" systemname="CDK2/Cyclin E complex (Homo sapiens, UniProt P24941)" observed="≤ 100 nM"
molecule=Cc1cc(CC(=O)Nc2cc([C@H]3CC[C@@H](OC(=O)N4C[C@@H]5[C@@H](CF)[C@@H]5C4)C3)[nH]n2)on1 systemname="CDK2/Cyclin E complex (Homo sapiens, UniProt P24941)" observed="≤ 100 nM"
molecule=COCc1nc2ccnc(Nc3cc([C@H]4C[C@@H](OC(=O)NC5(C)COC5)CO4)[nH]n3)c2s1 systemname="CDK2/Cyclin E complex (Homo sapiens, UniProt P24941)" observed="≤ 100 nM"
molecule=CS(=O)(=O)N1CCC(Nc2cc(C3CCCC3)[nH]n2)CC1 systemname="CDK2/Cyclin E complex (Homo sapiens, UniProt P24941)" observed="1000 to 100000 nM"
molecule=CCc1c(C)nc2ncnn2c1Nc1cc(C2CCCC2)[nH]n1 systemname="CDK2/Cyclin E complex (Homo sapiens, UniProt P24941)" observed="1000 to 100000 nM"
molecule=COCc1cc(C(=O)Nc2ncc([C@H]3C[C@@H](COC(=O)NC(C)C)C3)s2)n(C)n1 systemname="CDK2/Cyclin E complex (Homo sapiens, UniProt P24941)" observed="≤ 100 nM"

====

molecular target: CDK2/Cyclin E complex (Homo sapiens, UniProt P24941); assay: CDK2/Cyclin E fluorescence-based microfluidic mobility shift assay (CDK2 Biochemical Caliper Assay); settings: read-out: Biochemical CDK2/CyclinE Caliper IC50
measuredAttribute: IC50

compound=COCc1cc2c(Nc3cc([C@H]4C[C@@H](OC(=O)N[C@@H](C)C(F)(F)F)CO4)[nH]n3)nccn2n1 observed="≤ 100 nM"
compound="COCc1cc(C(=O)Nc2cc([C@@H]3CC[C@H](Oc4cnccc4C)C3)[nH]n2)n(C)n1 (single isomer, unassigned)" observed="100 to 250 nM"
compound="CCS(=O)(=O)N[C@H]1CC[C@@H](c2cc(NC(=O)Cc3cc(C)no3)n[nH]2)C1 (single isomer, unassigned)" observed="1000 to 100000 nM"
compound=Clc1ccn2c(Nc3cc(C4CCCC4)[nH]n3)nnc2c1 observed="1000 to 100000 nM"
compound="Cc1cc(CC(=O)Nc2cc([C@H]3CC[C@@H](Cc4cn[nH]c4C(C)C)C3)[nH]n2)on1 (single isomer, unassigned)" observed="100 to 250 nM"
compound="Cc1cnn(-c2ccnc(Nc3cc([C@H]4CC[C@@H](OC(=O)NC(C)C)C4)[nH]n3)c2)c1 (single isomer, unassigned)" observed="100 to 250 nM"
compound=Cn1nc(COC(F)(F)F)cc1C(=O)Nc1cc([C@@H]2C[C@H](OC(=O)NC34CC(C3)C4)CO2)[nH]n1 observed="≤ 100 nM"
compound=COCc1cc2c(Nc3cc([C@@H]4C[C@H](OC(=O)NC(C)C)CO4)[nH]n3)nccn2n1 observed="≤ 100 nM"
compound=COCc1cc2c(Nc3cc([C@H]4C[C@@H](OC(=O)N[C@@H](C)C(F)F)CO4)[nH]n3)nccn2n1 observed="≤ 100 nM"
compound=C#CC1CN(C(=O)O[C@@H]2CC[C@H](c3cc(NC(=O)Cc4cc(C)no4)n[nH]3)C2)C1 observed="100 to 250 nM"
compound=CC1(NC(=O)O[C@H]2CO[C@@H](c3cc(Nc4cc5nccnc5cn4)n[nH]3)C2)CC1 observed="250 to 1000 nM"
compound=Cc1cc(C)n2ccnc(Nc3cc(C4CCCC4)[nH]n3)c12 observed="1000 to 100000 nM"
compound="COCc1cc(C(=O)Nc2cc([C@@H]3CC[C@@](C)(CC(=O)NC(C)C)C3)[nH]n2)n(C)n1 (single isomer, unassigned)" observed="1000 to 100000 nM"
compound=Oc1ccc2ccnc(Nc3cc(C4CCCC4)[nH]n3)c2c1 observed="1000 to 100000 nM"
compound=c1cn2nc3c(c2c(Nc2cc(C4CCCC4)[nH]n2)n1)CCC3 observed="1000 to 100000 nM"
